Cited source for all entries: ChEMBL document CHEMBL1914412

System: Trypanosoma brucei rhodesiense
experimentDescription: Antitrypanosomal activity against Trypanosoma brucei rhodesiense STIB900 after 72 hrs using alamar blue staining by microplate fluorometric analysis
Assay type: functional, organism-based
conditionSummary: STIB900, 72 h
pIC50: −log10 of the molar value.
Entries annotated with measured pIC50
measurementKind: pIC50

>>> df
                                  testsmiles  measurementkind  recordednumber
 0  C/N=C(\N)Nc1ccc(Oc2cccc(Oc3ccc(N/C(N)=N/C)cc3)c2)cc1.Cl.Cl            pIC50            6.50
 1  CC(C)(C)c1ccc(C(=N)Nc2ccc(Oc3ccc(Oc4ccc(NC(=N)c5ccc(C(C)(C)C)cc5)cc4)cc3)cc2)cc1            pIC50            6.40
 2  N=C(Nc1ccc(Oc2ccc(Oc3ccc(NC(=N)C4CCCCC4)cc3)cc2)cc1)C1CCCCC1            pIC50            6.37
 3  N=C(Nc1ccc(Oc2cccc(Oc3ccc(NC(=N)c4ccccc4)cc3)c2)cc1)c1ccccc1            pIC50            5.98
 4  N=C(Nc1ccc(Oc2cccc(Oc3ccc(NC(=N)C4CCCCC4)cc3)c2)cc1)C1CCCCC1            pIC50            6.40
 5  CC(C)(C)c1ccc(C(=N)Nc2ccc(Oc3cccc(Oc4ccc(NC(=N)c5ccc(C(C)(C)C)cc5)cc4)c3)cc2)cc1            pIC50            5.56
 6  N=C(Nc1ccc(Oc2ccc(Oc3ccc(NC(=N)c4ccccc4)cc3)cc2)cc1)c1ccccc1            pIC50            6.06
 7  CC(C)/N=C(\N)Nc1ccc(Oc2ccc(Oc3ccc(N/C(N)=N/C(C)C)cc3)cc2)cc1.Cl.Cl            pIC50            6.80
 8  CC(C)/N=C(\N)Nc1ccc(Oc2cccc(Oc3ccc(N/C(N)=N/C(C)C)cc3)c2)cc1.Cl.Cl            pIC50            6.81
 9  N=C(Nc1ccc(Oc2cccc(Oc3ccc(NC(=N)c4ccc(-c5ccccc5)cc4)cc3)c2)cc1)c1ccc(-c2ccccc2)cc1            pIC50            4.08
10  N=C(N)Nc1ccc(Oc2ccc(Oc3ccc(NC(=N)N)cc3)cc2)cc1            pIC50            6.82
11  N=C(Nc1ccc(Oc2ccc(Oc3ccc(NC(=N)c4ccc(-c5ccccc5)cc4)cc3)cc2)cc1)c1ccc(-c2ccccc2)cc1            pIC50            6.21
12  C/N=C(/N)Nc1ccc(Oc2ccc(Oc3ccc(N/C(N)=N/C)cc3)cc2)cc1.Cl.Cl            pIC50            6.81
13  N=C(N)Nc1ccc(Oc2cccc(Oc3ccc(NC(=N)N)cc3)c2)cc1            pIC50            6.77

###

Below: a set of entries, each annotated with reported selectivity ratio.
experimentDescription: Ratio of IC50 for compound to IC50 for pentamidine for rat L6 cells
Type: cell-based
conditionSummary: read-out: Ratio IC50
measurementKind: selectivity ratio

>>> df
                                  testsmiles  recordednumber
 0  CC(C)/N=C(\N)Nc1ccc(Oc2ccc(Oc3ccc(N/C(N)=N/C(C)C)cc3)cc2)cc1.Cl.Cl             9.3
 1  C/N=C(/N)Nc1ccc(Oc2ccc(Oc3ccc(N/C(N)=N/C)cc3)cc2)cc1.Cl.Cl              27
 2  N=C(Nc1ccc(Oc2ccc(Oc3ccc(NC(=N)c4ccc(-c5ccccc5)cc4)cc3)cc2)cc1)c1ccc(-c2ccccc2)cc1              60
 3  N=C(Nc1ccc(Oc2cccc(Oc3ccc(NC(=N)c4ccc(-c5ccccc5)cc4)cc3)c2)cc1)c1ccc(-c2ccccc2)cc1             4.3
 4  CC(C)(C)c1ccc(C(=N)Nc2ccc(Oc3cccc(Oc4ccc(NC(=N)c5ccc(C(C)(C)C)cc5)cc4)c3)cc2)cc1              39
 5  CC(C)/N=C(\N)Nc1ccc(Oc2cccc(Oc3ccc(N/C(N)=N/C(C)C)cc3)c2)cc1.Cl.Cl              39
 6  N=C(Nc1ccc(Oc2ccc(Oc3ccc(NC(=N)c4ccccc4)cc3)cc2)cc1)c1ccccc1             1.3
 7  C/N=C(\N)Nc1ccc(Oc2cccc(Oc3ccc(N/C(N)=N/C)cc3)c2)cc1.Cl.Cl              22
 8  N=C(Nc1ccc(Oc2cccc(Oc3ccc(NC(=N)C4CCCCC4)cc3)c2)cc1)C1CCCCC1             1.9
 9  N=C(Nc1ccc(Oc2ccc(Oc3ccc(NC(=N)C4CCCCC4)cc3)cc2)cc1)C1CCCCC1             1.5
10  N=C(Nc1ccc(Oc2cccc(Oc3ccc(NC(=N)c4ccccc4)cc3)c2)cc1)c1ccccc1            0.43
11  N=C(N)Nc1ccc(Oc2ccc(Oc3ccc(NC(=N)N)cc3)cc2)cc1             5.5
12  N=C(N)Nc1ccc(Oc2cccc(Oc3ccc(NC(=N)N)cc3)c2)cc1               5
13  CC(C)(C)c1ccc(C(=N)Nc2ccc(Oc3ccc(Oc4ccc(NC(=N)c5ccc(C(C)(C)C)cc5)cc4)cc3)cc2)cc1            0.71
